Origin of measurements: ChEMBL document CHEMBL1134049

System: K562
Experiment: Effect upon G0-G1 phase of cell cycle relative to untreated control
Type: functional, Homo sapiens
Parameters: unit not given here
API: label(entry) gives 1 (yes) if the entry's Activity is strictly smaller than 4; on equality or larger values it gives 0 (no).

Solved entries:
[
  {
    "structure": "COc1ccc(Nc2cc(OC)c(OC)c(OC)c2)cc1O",
    "label": "1 (yes)"
  },
  {
    "structure": "COc1ccc(COc2cc(OC)c(OC)c(OC)c2)cc1O",
    "label": "1 (yes)"
  },
  {
    "structure": "COc1ccc(OCc2cc(OC)c(OC)c(OC)c2)cc1C=O",
    "label": "0 (no)"
  },
  {
    "structure": "COc1ccc(OCc2cc(OC)c(OC)c(OC)c2)cc1O",
    "label": "1 (yes)"
  }
]

Here is the next item to consider.
Qu. Please let me know if `COc1ccc(Oc2cc(OC)c(OC)c(OC)c2)cc1O` shows Activity below 4.
Ans. 0 (no)
